// Emax lookup, one value per entry
- tested on: NPFF1 (Homo sapiens)
- Sequence (Q9GZQ6 whole entry, species assumed): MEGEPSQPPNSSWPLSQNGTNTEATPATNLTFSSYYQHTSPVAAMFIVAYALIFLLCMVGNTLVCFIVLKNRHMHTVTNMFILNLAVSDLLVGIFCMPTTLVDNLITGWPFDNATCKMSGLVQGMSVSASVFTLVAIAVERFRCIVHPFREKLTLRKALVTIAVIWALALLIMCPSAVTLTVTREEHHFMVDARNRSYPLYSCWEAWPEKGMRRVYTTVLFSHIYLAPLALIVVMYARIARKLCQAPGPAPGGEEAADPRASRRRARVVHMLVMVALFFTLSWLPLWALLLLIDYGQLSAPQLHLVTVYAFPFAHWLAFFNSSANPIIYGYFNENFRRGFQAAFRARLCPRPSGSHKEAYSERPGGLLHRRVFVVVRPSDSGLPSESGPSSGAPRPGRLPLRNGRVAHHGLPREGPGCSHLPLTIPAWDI
- method description: Receptor Selection and Amplification Technology (R-SAT) functional assay, NPFF1
- Assay type: cell-based
- Parameters: expressed in transfected cells; host or cells: NIH3T3
- condition parameters: R-SAT, Table 1; Efficacy is relative to endogenous ligand; read-out: NPFF1 % Efficacy
Counter-ions that a name gives are not always drawn.

[
  {
    "molecule": "N=C(N)NN=Cc1ccc2c(c1)OCCCO2 [Compound 2038, Hydrochloride]",
    "Emax [%]": 9
  },
  {
    "molecule": "CC(=NNC(=N)N)c1cc(C(F)(F)F)cc(C(F)(F)F)c1 [Compound 3028, Hydrochloride]",
    "Emax [%]": 9
  },
  {
    "molecule": "Cc1cc(C=NNC(=N)N)ccc1F [Compound 2012, Hydrochloride]",
    "Emax [%]": 9
  }
]

---

- tested on: NPFF2 (Homo sapiens, UniProt Q9Y5X5)
- Construct: expressed in transfected cells; host or cells: NIH3T3
- Sequence (Q9Y5X5 103-522): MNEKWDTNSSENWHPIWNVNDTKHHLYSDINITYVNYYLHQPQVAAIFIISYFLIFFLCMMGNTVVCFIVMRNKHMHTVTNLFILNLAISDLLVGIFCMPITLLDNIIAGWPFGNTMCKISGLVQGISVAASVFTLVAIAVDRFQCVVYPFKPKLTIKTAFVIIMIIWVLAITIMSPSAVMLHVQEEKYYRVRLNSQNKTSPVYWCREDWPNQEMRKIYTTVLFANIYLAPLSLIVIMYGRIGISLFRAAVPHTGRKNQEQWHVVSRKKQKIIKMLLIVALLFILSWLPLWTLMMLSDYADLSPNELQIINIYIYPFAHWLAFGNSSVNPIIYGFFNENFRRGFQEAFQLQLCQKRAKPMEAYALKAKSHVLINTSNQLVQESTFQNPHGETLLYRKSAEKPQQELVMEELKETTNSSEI
- method description: Receptor Selection and Amplification Technology (R-SAT) functional assay, NPFF2
- Format: cell-based
- condition parameters: R-SAT, Table 1; Efficacy is relative to endogenous ligand; read-out: NPFF2 % Efficacy
Counter-ions that a name gives are not always drawn.

[
  {
    "compound": "COc1ccc(C=NNC(=N)N)cc1Br [Compound 2014, Hydrochloride]",
    "units": "%",
    "Emax": 35
  },
  {
    "compound": "N=C(N)NN=Cc1cccc(C(F)(F)F)c1 [Compound 2002, Hydrochloride]",
    "units": "%",
    "Emax": 39
  },
  {
    "compound": "CC(=NNC(=N)N)c1cccc(C(F)(F)F)c1 [Compound 3027, Hydrochloride]",
    "units": "%",
    "Emax": 63
  },
  {
    "compound": "CN(CCO)c1ccc(C=NNC(=N)N)cc1 [Compound 3041, Hydrochloride]",
    "units": "%",
    "Emax": 53
  },
  {
    "compound": "COc1ccc2ccccc2c1C=NNC(=N)N [Compound 3007, Hydrochloride]",
    "units": "%",
    "Emax": 84
  },
  {
    "compound": "COc1cc(Cl)cc(C=NNC(=N)N)c1OC [Compound 2059, Hydrochloride]",
    "units": "%",
    "Emax": 79
  },
  {
    "compound": "N=C(N)NN=Cc1cccc(C(F)(F)F)c1F [Compound 2065, Hydrochloride]",
    "units": "%",
    "Emax": 45
  },
  {
    "compound": "CC(=NNC(=N)N)c1ccc2c(c1)CCCC2 [Compound 3024, Hydrochloride]",
    "units": "%",
    "Emax": 99
  },
  {
    "compound": "CC(=NNC(=N)N)c1ccc2c(c1)OCCO2 [Compound 2040, Hydrochloride]",
    "units": "%",
    "Emax": 65
  },
  {
    "compound": "CN(CCC#N)c1ccc(C=NNC(=N)N)cc1 [Compound 3040, Hydrochloride]",
    "units": "%",
    "Emax": 70
  },
  {
    "compound": "N=C(N)NN=Cc1ccc(Cl)c(F)c1 [Compound 2030, Hydrochloride]",
    "units": "%",
    "Emax": 62
  },
  {
    "compound": "CCN(CC)c1ccc(C=NNC(=N)N)c(O)c1 [Compound 3037, Hydrochloride]",
    "units": "%",
    "Emax": 59
  },
  {
    "compound": "CCOc1ccc(C=NNC(=N)N)cc1OCC [Compound 2026]",
    "units": "%",
    "Emax": 58
  },
  {
    "compound": "N=C(N)NN=Cc1ccc(Oc2ccccc2)cc1 [Compound 2020, Hydrochloride]",
    "units": "%",
    "Emax": 31
  }
]
